// values below are reported cytotoxicity at 10 µM
assay: Toxicity liver stage against HepG2, at 10uM; format: cell-based; parameters: test concentration 10 uM, cell line HepG2-A16-CD81EGFP; details: human, HepG2-A16-CD81EGFP cells; read-out: INHIBITION
Provide the reading as a plain figure in %.

Compound | Measure unit | cytotoxicity at 10 µM
CCN(Cc1cccc(NC(=O)COCCOC)c1)C(C)=O | % | -136
Fc1cc(CCNc2ccc3nccn3n2)c2c(c1)COCO2 | % | 17.2
Cc1nc2c(c(NCCN3CCOCC3)n1)CCN(C)C2 | % | 4.09
CCc1nc(C2CCCN(C(=O)CC3CCOCC3)C2)no1 (stereo not given) | % | -15.3
CCn1cc(NC(=O)NCC(C)N(C)C2CC2)cn1 (stereo not given) | % | -3.54
Cc1nc(C(C)C)sc1C(=O)N(C)Cc1cnn(C)c1 | % | 6.45
CC1=N[C@@]2(CC[C@@H]3CN(C(=O)NCc4cccc(F)c4)C[C@@H]32)C(=O)N1 | % | -73.4
O=C(c1cc(F)ccc1F)C1CCN(C(=O)c2ccccn2)CC1 | % | 2.6

Indicate its recorded cytotoxicity at 10 µM; the compound in question is COc1nn(C)c2c1CCCN(S(=O)(=O)c1cccc(F)c1)C2
-129

Look up cytotoxicity at 10 µM of O=C(C1CCC1)N1CCC(c2ncc3c(n2)CCNC3)CC1 and report it.
-25.1

Answer with the recorded cytotoxicity at 10 µM for the compound listed here: CC(C)NC(=O)Nc1cccc2c1CCN(S(C)(=O)=O)C2
-8.59

Annotate the compound Cc1cc(NC(=O)NCC2CCN(C(C)C)C2)no1 (stereo not given) with its measured cytotoxicity at 10 µM.
-15.3

Give the reported value of cytotoxicity at 10 µM for this record: CNC(=O)C1CN(Cc2ccc(C#N)cc2F)c2ccccc2O1 (stereo not given)
9.44

* * *

Consider the following compounds and their measured cytotoxicity at 10 µM readings.
experiment: Toxicity liver stage against HepG2, at 10uM; format: cell-based; design: test concentration 10 uM, cell line HepG2-A16-CD81EGFP; conditions: human, HepG2-A16-CD81EGFP cells; read-out: INHIBITION
The figure you give is taken to be in %; do not add the unit.

Structure as smiles | Measure unit | cytotoxicity at 10 µM
O=C(O)c1cc(S(=O)(=O)Nc2cc(F)ccc2F)cc2c1OCCO2 | % | -7.42
CCc1nsc(N2CCN(CC(=O)Nc3c(C)n[nH]c3C)CC2)n1 | % | -3.63
CCS(=O)(=O)NCC(=O)N(C1CC1)C1Cc2ccccc2C1 | % | 4.25
CCN(CC)C(=O)c1ccc(Cl)c(NC(=O)c2csnn2)c1 | % | 7.3
O=C1CC[C@H]2CN(Cc3ccc(Cl)s3)CC[C@H]2N1CCc1c[nH]cn1 | % | 38.5

Specify measured cytotoxicity at 10 µM for COc1cc(N2CCC3(CCCN3Cc3cnn(C)c3)CC2)ncn1 .
6.5

Supply measured cytotoxicity at 10 µM of CCOCCn1nc(C)cc1C(=O)N1CC[C@](C)(O)[C@H](C)C1 in your reply.
-6.34

Annotate the compound O=C(NCCc1cccs1)[C@]12COC[C@H]1CN(C1CCOCC1)C2 with its measured cytotoxicity at 10 µM.
-116
